B1: SNAP91 (parent)
chain: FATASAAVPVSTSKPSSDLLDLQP

Variants of: B1
method_summary: protein stability index of a GFP-peptide fusion (GPS, HEK-293T) (PSI 1-6); higher = more stable;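 note: lentivirally expressed fusions sorted by FACS into six bins by GFP to DsRed ratio, PSI derived from sequencing read proportions per bin multiplied by bin number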
applied_conditions: c terminus: a fixed tail appended
property_measured: protein stability index
Keep it simple and answer with nothing but the number.

// known answers, use as guide
FATASAAVRVSTSKPSSDLLDLQP [P9R] | 3.05
FAQASAAVPVSTSKPSSDLLDLQP [T3Q] | 4.15
FATASAAVDVSTSKPSSDLLDLQP [P9D] | 3.78

Ask: Quick one: give measured protein stability index for FATASAAGPVSTSKPSSDLLDLQP [V8G]
Result: 4.52

Ask: Quick one: give measured protein stability index for FATASAAVPVSTSEPSSDLLDLQP [K14E]
Result: 4.45

Ask: Quick one: give measured protein stability index for FVTASAAVPVSTSKPSSDLLDLQP [A2V]
Result: 1.65

Ask: Quick one: give measured protein stability index for FATASAAVPVSTSKPSSDLLDYQP [L22Y]
Result: 3.99

Ask: Quick one: give measured protein stability index for FATASAAVMVSTSKPSSDLLDLQP [P9M]
Result: 2.29

Ask: Quick one: give measured protein stability index for FATASAAVPVSTSKPSSDLLLLQP [D21L]
Result: 2.48

Ask: Quick one: give measured protein stability index for FATASAAVPVSTSKWSSDLLDLQP [P15W]
Result: 2.19

Ask: Quick one: give measured protein stability index for FAEASAAVPVSTSKPSSDLLDLQP [T3E]
Result: 4.26

Ask: Quick one: give measured protein stability index for FATASAAVPVSTSKPSSDLLDLQM [P24M]
Result: 3.52

Ask: Quick one: give measured protein stability index for PATASAAVPVSTSKPSSDLLDLQP [F1P]
Result: 4.84

Ask: Quick one: give measured protein stability index for FATASAAVPVSTSKPSSDLLFLQP [D21F]
Result: 2.52

Ask: Quick one: give measured protein stability index for FSTASAAVPVSTSKPSSDLLDLQP [A2S]
Result: 4.01

Ask: Quick one: give measured protein stability index for FATASAAVPVSTKKPSSDLLDLQP [S13K]
Result: 3.72
